Where do the numbers come from? From PubChem BioAssay AID1318.

- experiment summary: STAT1 reporter activators, IFN-gamma induced, counter-screen for STAT3 activator project, cell-based, NIH 3T3, luciferase luminescence (AID 1318);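 further: 100% = IFN-gamma with DMSO median signal so 100% means no change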
- condition: NIH 3T3 STAT1-luciferase reporter, at 5.7 µM, active compounds read high
Out of some 1,200 compounds screened, about 160 (13%) were called active. Not all results are given here.
quantity measured: activation (% of control) (%)
Numbers only, in %.

Worked cases, answers included:
| compound | activation (% of control) (%) |
| --- | --- |
| CCCS(=O)(=O)Nc1c(C(=O)O)[nH]c2ccccc12 | 94.9 |
| COc1ccc(C2c3[nH]c4ccccc4c3CCN2CCCn2cccn2)cc1C (centres undefined) | 95.6 |
| COC(=O)c1[nH]c2ccccc2c1NC(=O)CN1CCCc2ccccc21 | 106 |
| COc1ccc(NC(=O)ON=C2c3ccccc3-c3ccccc32)cc1 | 107 |
| O=C(O)CS/C(=C\c1ccc(F)cc1)c1nc2ccccc2s1 | 112 |

Provide each entry's activation (% of control) from the list below.
1. COc1ccc(C)cc1NC(=O)c1[nH]c(C)c(C(C)=O)c1C
2. Oc1c(C=Nc2cccc3nsnc23)ccc2ccccc12
3. Cn1nc(-c2ccc(Cl)cc2)c2cc(C(=O)NCc3ccco3)sc21
4. O=C(NCc1ccco1)c1cccn2c(=O)c3c4c(sc3nc12)CCCC4
5. Cc1ccc(/C=N/NC(=O)COc2ccccc2-c2ccccc2)cc1
6. CCOC(=O)c1c(-c2cccc(C)c2)csc1NC(=O)c1c(-c2ccccc2)noc1C

1. 100
2. 95.4
3. 94.9
4. 87
5. 114
6. 117

For each of the compounds below, note its activation (% of control).
1. Cc1ccc(-c2cc(C(=O)Nc3nn[nH]n3)c3ccccc3n2)c(C)c1
2. C/C(=N\c1nc2ccccc2n1C)c1cc(Cl)ccc1O
3. Cc1ccc(N=Nc2c(C)[nH]n(-c3ccccc3)c2=O)cc1
4. CC(C)CNC(=O)COC(=O)/C=C/c1ccccc1[N+](=O)[O-]
5. CN1CCN(c2ccc([N+](=O)[O-])c(Sc3nc4ccccc4[nH]3)c2)CC1

1. 97.5
2. 92.8
3. 106
4. 89.1
5. 96.2

Count: 6. Required value per item: activation (% of control).
1. COc1cccc(/C=C(/CC(=O)Nc2ccc(N3CCOCC3)cc2)c2nc3ccccc3s2)c1
2. Cc1cccc(C(=O)N2CCc3c([nH]c4ccccc34)C2CC(C)C)n1 (centres undefined)
3. CSCCC(NC(=O)c1ccco1)C(=O)OCC(=O)Nc1ncc(Cl)c(C)c1Cl (centres undefined)
4. C/C(=N\NC(=O)CNc1cccc2ccccc12)c1ccc(Br)s1
5. CSc1nc(N(C)NC(=O)c2cccc(C)c2)c2ccccc2n1
6. O=[N+]([O-])c1ccc(N2CCN(S(=O)(=O)c3ccc4ccccc4c3)CC2)cc1NCc1ccco1

99.9
118
105
92.6
107
110

Give measured activation (% of control) for every item shown.
1. O=C(C1CCN(S(=O)(=O)Cc2ccccc2)CC1)N1CCCc2ccccc21
2. COc1cc(NS(=O)(=O)c2ccc(N/C=C(\C=O)c3nc4cc(Cl)ccc4o3)cc2)nc(OC)n1
3. Cc1cccc(N(CC(=O)N=Nc2c(O)[nH]c3ccccc23)S(C)(=O)=O)c1C

105
93.1
107

# per-item lookup of activation (% of control); items listed below
1. COc1cccc(NC(=S)C(C#N)=C2N(C)c3ccccc3N2C)c1
2. N#Cc1ccccc1NC(=O)COc1c(Br)cc(Br)c2cccnc12
3. Oc1cccc(C2c3[nH]c4ccccc4c3CCN2Cc2cnn(-c3ccccc3)c2)c1 (centres undefined)
4. Fc1ccc2nc(-c3ccccc3)nc(SCc3nnc(-c4ccccc4)o3)c2c1
5. NC(=O)CSc1c[nH]c2ccccc12
6. COc1ccc([N+](=O)[O-])cc1C1NN=C(c2cccc3ccccc23)S1 (centres undefined)
7. COc1ccc(Cl)cc1NC(=O)c1oc(C)nc1C
8. O=C1CCCN1CCCNc1ncnc2c1[nH]c1ccccc12

1. 103
2. 85.6
3. 93.5
4. 96.5
5. 99.4
6. 120
7. 98.8
8. 82.6

Answer for every listed entry: what is its activation (% of control)? The entries follow.
1. Cc1csc2ncc(C(=O)N(Cc3ccccc3)c3ccccn3)c(=O)n12
2. O=C(Nc1cc(C(F)(F)F)ccc1Cl)c1cc(C2CC2)on1
3. COc1ccccc1N1CCN(C(=O)c2cc3c(-c4ccc(Cl)cc4)nn(C)c3s2)CC1
4. COc1nc(N=C(N)N)nc2c(C)cccc12
5. COc1ccccc1C1C2=C(COC2=O)Nc2cc3c(cc21)OCO3 (centres undefined)
6. CCOC(=O)C1CCN(c2ncnc3c2oc2ccc(Br)cc23)CC1

[103, 98.3, 93.1, 102, 116, 92.6]

Look up activation (% of control) for the entries below, preserving their order.
1. C=CCCC(=O)Nc1nc(C)c(-c2csc(Nc3ccc(Cl)cc3)n2)s1
2. Cc1ccc(Nc2nc(-c3sc(NC(=O)c4ccccc4)nc3C)cs2)cc1
3. CCNCc1cc2cc(C)ccc2[nH]c1=O
4. CCCCC(=O)Nc1nc(C)c(-c2csc(Nc3ccc(Cl)cc3)n2)s1
5. CCOc1ccc(C2c3[nH]c4ccccc4c3CCN2Cc2cn(CC)nc2C)cc1 (centres undefined)

[104, 105, 98.7, 102, 112]
